- tested_on: Sodium channel protein type 9 subunit alpha (Homo sapiens, UniProt Q15858)
- Sequence (Q15858 whole entry): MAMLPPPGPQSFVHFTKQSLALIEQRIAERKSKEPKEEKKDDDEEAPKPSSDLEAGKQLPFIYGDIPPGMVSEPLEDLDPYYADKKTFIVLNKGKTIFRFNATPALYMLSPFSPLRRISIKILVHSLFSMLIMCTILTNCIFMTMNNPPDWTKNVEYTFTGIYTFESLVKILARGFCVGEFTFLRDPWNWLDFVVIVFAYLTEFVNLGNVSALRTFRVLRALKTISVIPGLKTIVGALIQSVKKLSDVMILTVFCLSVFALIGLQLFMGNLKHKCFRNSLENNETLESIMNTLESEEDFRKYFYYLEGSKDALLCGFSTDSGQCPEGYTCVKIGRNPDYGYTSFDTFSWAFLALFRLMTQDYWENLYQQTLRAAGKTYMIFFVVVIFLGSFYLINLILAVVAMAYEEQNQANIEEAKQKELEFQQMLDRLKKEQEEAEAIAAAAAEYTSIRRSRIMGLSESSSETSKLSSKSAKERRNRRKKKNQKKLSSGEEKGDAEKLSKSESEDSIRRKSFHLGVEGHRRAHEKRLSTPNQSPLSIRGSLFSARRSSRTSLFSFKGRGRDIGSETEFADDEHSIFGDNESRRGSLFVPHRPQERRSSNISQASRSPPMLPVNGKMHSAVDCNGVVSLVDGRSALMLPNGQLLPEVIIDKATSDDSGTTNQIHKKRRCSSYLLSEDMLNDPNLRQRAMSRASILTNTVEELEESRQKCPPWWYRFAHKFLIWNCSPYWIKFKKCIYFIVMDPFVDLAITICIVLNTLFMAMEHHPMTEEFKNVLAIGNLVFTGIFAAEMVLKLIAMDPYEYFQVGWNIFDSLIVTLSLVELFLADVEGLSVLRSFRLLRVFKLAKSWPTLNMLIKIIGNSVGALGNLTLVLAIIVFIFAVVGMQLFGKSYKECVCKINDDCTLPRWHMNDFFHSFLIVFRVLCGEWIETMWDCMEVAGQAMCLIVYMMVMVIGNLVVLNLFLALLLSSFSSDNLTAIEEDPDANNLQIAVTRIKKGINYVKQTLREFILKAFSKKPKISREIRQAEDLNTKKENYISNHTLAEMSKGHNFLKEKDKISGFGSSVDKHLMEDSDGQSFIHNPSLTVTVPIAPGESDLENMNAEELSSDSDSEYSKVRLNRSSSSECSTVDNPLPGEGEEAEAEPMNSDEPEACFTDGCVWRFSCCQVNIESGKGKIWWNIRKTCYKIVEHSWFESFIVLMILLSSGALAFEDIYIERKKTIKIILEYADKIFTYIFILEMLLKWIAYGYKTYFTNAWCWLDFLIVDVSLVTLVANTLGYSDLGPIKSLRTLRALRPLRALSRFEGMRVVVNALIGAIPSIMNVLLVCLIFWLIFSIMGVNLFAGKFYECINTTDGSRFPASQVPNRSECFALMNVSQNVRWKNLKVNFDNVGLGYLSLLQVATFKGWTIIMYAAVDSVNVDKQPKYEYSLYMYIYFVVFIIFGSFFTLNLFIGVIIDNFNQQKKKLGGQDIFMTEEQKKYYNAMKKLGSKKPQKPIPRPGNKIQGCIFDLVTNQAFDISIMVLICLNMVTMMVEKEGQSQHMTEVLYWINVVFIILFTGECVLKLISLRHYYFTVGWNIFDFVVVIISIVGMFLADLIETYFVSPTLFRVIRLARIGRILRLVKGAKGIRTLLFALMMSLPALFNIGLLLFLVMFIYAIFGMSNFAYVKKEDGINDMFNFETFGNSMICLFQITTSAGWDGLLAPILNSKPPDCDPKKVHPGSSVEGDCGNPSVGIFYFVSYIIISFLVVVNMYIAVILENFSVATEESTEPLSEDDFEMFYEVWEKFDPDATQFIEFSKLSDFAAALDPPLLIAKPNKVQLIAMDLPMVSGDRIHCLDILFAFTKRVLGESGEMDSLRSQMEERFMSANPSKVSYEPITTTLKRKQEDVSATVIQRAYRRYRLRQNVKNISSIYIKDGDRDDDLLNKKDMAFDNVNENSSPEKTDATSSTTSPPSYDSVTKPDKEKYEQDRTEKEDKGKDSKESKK
- protocol_description: Inhibition of human Nav1.7 expressed in HEK cells assessed as reduction in sodium current at -60 mV holding potential by PatchXpress platform based whole cell patch clamp electrophysiological assay
assay_readout: IC50 (nM)
Unit nM implied. Number only.

Identify the measured IC50 of O=S(=O)(Nc1ncns1)c1cc(F)c(OC[C@@H]2CNCC[C@H]2c2ccc(F)cc2)cc1F (relative stereo) for Sodium channel protein type 9 subunit alpha (Homo sapiens, UniProt Q15858).
6.8

Queued: `O=S(=O)(Nc1ncns1)c1cc(F)c(OC[C@@H]2CNCC[C@H]2c2ccc(Cl)cc2)cc1F`
59

Param item: `O=S(=O)(Nc1ncns1)c1cc(F)c(OC[C@H]2CNCC[C@H]2c2ccc(Cl)cc2)cc1F`
237

Next: O=S(=O)(Nc1nncs1)c1cc(F)c(OC[C@@H]2CNCC[C@H]2c2ccc(Cl)cc2)cc1F (relative stereo)
84

====

- tested_on: Cytochrome P450 2C9 (Homo sapiens, UniProt P11712)
- Sequence (P11712 whole entry): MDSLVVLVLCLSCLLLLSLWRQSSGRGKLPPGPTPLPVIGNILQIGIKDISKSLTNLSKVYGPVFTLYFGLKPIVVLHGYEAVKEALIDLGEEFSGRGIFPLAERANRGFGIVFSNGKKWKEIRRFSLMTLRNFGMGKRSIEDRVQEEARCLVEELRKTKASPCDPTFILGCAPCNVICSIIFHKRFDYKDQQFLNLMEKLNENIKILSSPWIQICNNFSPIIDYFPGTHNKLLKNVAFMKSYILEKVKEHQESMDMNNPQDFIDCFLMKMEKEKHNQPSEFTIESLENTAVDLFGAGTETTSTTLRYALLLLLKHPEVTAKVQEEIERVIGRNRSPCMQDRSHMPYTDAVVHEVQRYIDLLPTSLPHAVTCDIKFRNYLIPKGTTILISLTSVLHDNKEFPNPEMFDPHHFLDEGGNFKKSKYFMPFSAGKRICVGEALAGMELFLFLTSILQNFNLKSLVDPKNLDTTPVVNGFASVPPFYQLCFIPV
assay_readout: IC50 (nM)
Express your answer in nM, writing the number without its unit.

Entry under review: `CN1CC[C@H](c2ccc(Cl)cc2)[C@@H](COc2cc(F)c(S(=O)(=O)Nc3ncns3)cc2F)C1` . Reported IC50?
880

====

- tested_on: Sodium channel protein type 9 subunit alpha (Homo sapiens, UniProt Q15858)
- protocol_description: Inhibition of human Nav1.7 expressed in HEK cells assessed as reduction in sodium current at -60 mV holding potential by PatchXpress platform based whole cell patch clamp electrophysiological assay
- Design: species or system HEK293
assay_readout: IC50 (nM)
Kindly provide the numeric value in nM only, without the unit symbol.

[[record]]
compound = "Cc1ccc([C@H]2CCNC[C@@H]2COc2cc(F)c(S(=O)(=O)Nc3ncns3)cc2F)cc1 (relative stereo)"
obs_value = 13


For the compound O=S(=O)(Nc1ncccn1)c1cc(F)c(OC[C@@H]2CNCC[C@H]2c2ccc(Cl)cc2)cc1F (relative stereo) , what IC50 is on record?
53

And the next one, CC(C)(C)OC(=O)N1CC[C@@H](c2ccc(Cl)cc2)[C@H](COc2cc(F)c(S(=O)(=O)Nc3ncns3)cc2F)C1 (relative stereo) ?
164

Can you handle O=S(=O)(Nc1ncns1)c1cc(F)c(OC[C@@H]2CN(CC(F)(F)F)CC[C@H]2c2ccc(Cl)cc2)cc1F (relative stereo) next?
130

====

- tested_on: Sodium channel protein type 9 subunit alpha (Homo sapiens)
- protocol_description: Inhibition of human Nav1.7 expressed in HEK cells assessed as reduction in sodium current at -60 mV holding potential by PatchXpress platform based whole cell patch clamp electrophysiological assay
pIC50: −log10 of the molar value.
We use 7 as the dividing line for pIC50: on or above the line is 1.0, below is 0.0.

[[record]]
molecule = "O=S(=O)(Nc1ncns1)c1cc(F)c(OC[C@@H]2CCCC[C@H]2c2ccc(Cl)cc2)cc1F (relative stereo)"
group = 0.0


Next molecule, please.
Please indicate if the recorded pIC50 for O=S(=O)(Nc1cccnn1)c1cc(F)c(OC[C@@H]2CNCC[C@H]2c2ccc(Cl)cc2)cc1F (relative stereo) meets or exceeds 7.
0.0

====

- tested_on: Cytochrome P450 2C19 (Homo sapiens, UniProt P33261)
- Sequence (P33261 whole entry): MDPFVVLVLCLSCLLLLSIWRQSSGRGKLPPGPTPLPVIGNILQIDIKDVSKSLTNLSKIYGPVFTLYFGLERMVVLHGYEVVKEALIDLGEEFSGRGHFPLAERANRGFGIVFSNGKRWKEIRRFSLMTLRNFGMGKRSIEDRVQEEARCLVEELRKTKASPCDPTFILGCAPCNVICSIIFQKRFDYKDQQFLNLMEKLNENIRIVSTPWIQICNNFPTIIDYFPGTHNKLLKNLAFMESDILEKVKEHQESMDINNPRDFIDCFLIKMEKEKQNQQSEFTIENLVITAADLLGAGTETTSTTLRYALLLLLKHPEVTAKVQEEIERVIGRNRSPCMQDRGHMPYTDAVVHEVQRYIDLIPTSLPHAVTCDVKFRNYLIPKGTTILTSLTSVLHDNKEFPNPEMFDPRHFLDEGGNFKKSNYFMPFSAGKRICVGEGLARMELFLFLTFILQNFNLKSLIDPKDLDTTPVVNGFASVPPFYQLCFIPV
pIC50: −log10 of the molar value.
assay_readout: pIC50

// known answers, use as guide
[[record]]
compound_structure = "CN1CC[C@H](c2ccc(Cl)cc2)[C@@H](COc2cc(F)c(S(=O)(=O)Nc3ncns3)cc2F)C1"
obs_value = "< 5.00"

[[record]]
compound_structure = "O=S(=O)(Nc1ncns1)c1cc(F)c(OC[C@H]2CNCC[C@@H]2c2ccc(Cl)cc2)cc1F"
obs_value = "< 5.00"


Now for the compound whose pIC50 we want.
Name the recorded pIC50 for `O=S(=O)(Nc1ncc(F)cn1)c1cc(F)c(OC[C@H]2CNCC[C@@H]2c2ccc(Cl)cc2)cc1F` .
< 5.00
